# inhibition at 0.3 µM per entry
biological target: Type I 5α-Reductase from Human Scalp (Homo sapiens); construct: Scalp punch biopsies from graft recipient sites were obtained from human hair transplant procedures; from tissue; host or cells: human scalp punch biopsies (hair transplant graft recipient sites), homogenate, 100,000×g pellet; assay: Human Type I 5α-reductase assay (conversion of [3H]-testosterone to 5α-reduced metabolites); type: biochemical; conditions: pH 7.5, 0.3 μM; 50 nM [3H]-testosterone, pH 7.5, 25°, 180 min; compared to control reaction mixtures; read-out: percent inhibition of Type I AR
Sequence (P18405 whole entry): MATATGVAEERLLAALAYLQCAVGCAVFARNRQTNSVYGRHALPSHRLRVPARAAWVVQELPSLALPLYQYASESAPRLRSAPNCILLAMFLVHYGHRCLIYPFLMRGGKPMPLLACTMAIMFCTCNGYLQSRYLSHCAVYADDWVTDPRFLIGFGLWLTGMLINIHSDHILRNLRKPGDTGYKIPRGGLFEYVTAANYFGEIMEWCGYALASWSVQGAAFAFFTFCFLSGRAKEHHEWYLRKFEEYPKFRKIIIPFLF

Guide cases for inhibition at 0.3 µM, answers given:
CN1C(=O)CC[C@]2(C)c3ccc(-c4ccccc4[N+](=O)[O-])cc3CC[C@@H]12: 23%
CN1C(=O)CC[C@]2(C)c3ccc(NC(=O)c4ccccc4)cc3CC[C@@H]12: 34%
CN1C(=O)CC[C@]2(C)c3ccc(Sc4cccc(F)c4)cc3CC[C@@H]12: 97%
CN1C(=O)CC[C@]2(C)c3ccc(-c4cc(F)cc(F)c4F)cc3CC[C@@H]12: 83%
CN1C(=O)CC[C@]2(C)c3ccc(-c4cc(F)ccc4F)cc3CC[C@@H]12: 97%

Q) Given CN1C(=O)CC[C@]2(C)c3ccc(-c4ccc(F)c(F)c4)cc3CC[C@@H]12 , state its recorded inhibition at 0.3 µM.
A) 92%

Q) Need inhibition at 0.3 µM of CN1C(=O)CC[C@]2(C)c3ccc(Sc4ccccn4)cc3CC[C@@H]12 , thanks.
A) 44%

Q) Field request: inhibition at 0.3 µM | item: CN1C(=O)CC[C@]2(C)c3ccc(Sc4ccc([N+](=O)[O-])cn4)cc3CC[C@@H]12
A) 50%
